Target: SYK kinase (Homo sapiens, UniProt P43405)
metric: Ki

>  <structure-smiles>
COc1ccc(-c2nc(Nc3ccc4c(c3)NC(=O)CO4)c3[nH]ncc3n2)cc1OC

>  <experimental-value>
10 to 100 nM

$$$$

Fill in Ki for each of the 4 compounds listed.
1. CN1CCN(C2CCN(c3ccc(Nc4nc(-c5ccccc5F)nc5cn[nH]c45)cc3)CC2)CC1
2. CS(=O)(=O)c1ccccc1Nc1nc(-c2cccs2)nc2cn[nH]c12
3. c1ccc(-c2nc(Nc3ccc(N4CCCCC4)cc3)c3[nH]ncc3n2)cc1
4. CS(=O)(=O)c1ccccc1Nc1nc(-c2ccccc2F)nc2cn[nH]c12

Data returned:
< 10 nM
10 to 100 nM
10 to 100 nM
100 to 1000 nM

Your task in this section: give Ki for each listed record.
1. O=C1CCc2ccc(Nc3nc(-c4ncco4)nc4cn[nH]c34)cc2N1
2. c1ccc(-c2nc(Nc3ccc(N4CCCC4)cc3)c3[nH]ncc3n2)cc1
3. N[C@@H]1CCCC[C@H]1Nc1nc(-c2ccsc2)nc2cn[nH]c12

Data returned:
1: < 10 nM; 2: 100 to 1000 nM; 3: 100 to 1000 nM

Items follow; give Ki for each.
1. CC(=O)N1CCN(c2ccc(Nc3nc(-c4cccc(-c5nn[nH]n5)c4)nc4cn[nH]c34)cc2)CC1
2. COc1ccc(-c2nc(Nc3ccc(N4CCOCC4)cc3)c3[nH]ncc3n2)cc1OC

Data returned:
< 10 nM
< 10 nM

* * *

For each of the molecules below, state its pKi.
Target: SYK kinase (Homo sapiens, UniProt P43405)
pKi: −log10 of the molar value.

Sample answers from the record:
>  <structure-smiles>
c1cc(-c2nc(Nc3ccc(N4CCOCC4)cc3)c3[nH]ncc3n2)ccn1

>  <pKi>
7.00 to 8.00

$$$$
>  <structure-smiles>
Cc1nc2cc(Nc3nc(-c4ccccc4)nc4cn[nH]c34)ccc2[nH]1

>  <pKi>
7.00 to 8.00

$$$$
>  <structure-smiles>
c1cc2[nH]ncc2cc1Nc1nc(-c2ccc(N3CCCC3)nc2)nc2cn[nH]c12

>  <pKi>
7.00 to 8.00

$$$$

Field: next molecule
Data request: Please give the documented pKi of COc1cccc(-c2nc(Nc3cccc(O)c3)c3[nH]ncc3n2)c1
Data returned: 7.00 to 8.00

* * *

A set of molecules tested on SYK kinase (Homo sapiens), with measured Ki:

Illustrative cases are given below, each with its answer.
>  <structure-smiles>
COc1ccc(Nc2nc(-c3nc4ccccc4[nH]3)nc3cn[nH]c23)cc1OC

>  <metric>
Ki

>  <experimental-value>
10 to 100 nM

$$$$
>  <structure-smiles>
O=C1COc2ccc(Nc3nc(-c4ccc(N5CCCC5)nc4)nc4cn[nH]c34)cc2N1

>  <metric>
Ki

>  <experimental-value>
10 to 100 nM

$$$$
>  <structure-smiles>
COc1cccc(-c2nc(Nc3ccc(N4CCOCC4)cc3)c3[nH]ncc3n2)c1

>  <metric>
Ki

>  <experimental-value>
< 10 nM

$$$$
>  <structure-smiles>
COc1cccc(-c2nc(Nc3ccc4c(c3)NCCO4)c3[nH]ncc3n2)c1

>  <metric>
Ki

>  <experimental-value>
10 to 100 nM

$$$$
>  <structure-smiles>
c1cc(-c2nc(Nc3ccc(N4CCSCC4)cc3)c3[nH]ncc3n2)cs1

>  <metric>
Ki

>  <experimental-value>
10 to 100 nM

$$$$
>  <structure-smiles>
CN1CCC(c2nc(Nc3cccc(O)c3)c3[nH]ncc3n2)CC1

>  <metric>
Ki

>  <experimental-value>
10 to 100 nM

$$$$

Give Ki for all molecules that follow.
1. COc1ccc(Nc2nc(-c3nccs3)nc3cn[nH]c23)cc1OC
2. O=C1CCc2ccc(Nc3nc(-c4cccc(C(=O)O)c4)nc4cn[nH]c34)cc2N1
3. CN(C)CCNc1nc(C(=O)c2ccccc2)nc2cn[nH]c12
4. COC(=O)c1cccc(-c2nc(Nc3ccc4cn[nH]c4c3)c3[nH]ncc3n2)c1
5. CN1CCN(c2ccc(Nc3nc(-c4nc5ccccc5s4)nc4cn[nH]c34)cc2)CC1
6. CC(C)(C)c1cccc(Nc2nc(-c3cccs3)nc3cn[nH]c23)c1
7. COc1ccc(Nc2nc(-c3ncco3)nc3cn[nH]c23)cc1OC

Data returned:
["10 to 100 nM", "< 10 nM", "100 to 1000 nM", "100 to 1000 nM", "< 10 nM", "100 to 1000 nM", "< 10 nM"]

* * *

Molecular target: UniProt Q5S007
Assay: LRRK2-LRRK2 G2019S-Assay (LanthaScreen Eu Kinase Binding Assay)
Conditions: 5 nM LRRK2 or their mutants, 10 nM tracer 236, RT 1 h; read-out: LRRK2 Activities: IC50
pIC50: −log10 of the molar value.
For each of the compounds below, state its pIC50.

>  <structure-smiles>
Cc1nc2cc(Nc3nc(-c4ccc5c(c4)NCCO5)nc4cn[nH]c34)ccc2[nH]1

>  <pIC50>
6.00 to 7.00

$$$$
>  <structure-smiles>
O=C1CCc2ccc(Nc3nc(-c4ncco4)nc4cn[nH]c34)cc2N1

>  <pIC50>
6.00 to 7.00

$$$$
>  <structure-smiles>
COc1cc(C(=O)N2CCC(N3CCN(C)CC3)CC2)ccc1Nc1nc(-c2cccs2)nc2cn[nH]c12

>  <pIC50>
7.00 to 8.00

$$$$
>  <structure-smiles>
COc1ccc(-c2nc(Nc3ccc(N(C)C)cc3)c3[nH]ncc3n2)cc1OC

>  <pIC50>
7.00 to 8.00

$$$$
>  <structure-smiles>
c1cc(Nc2nc(-c3ccc(N4CCCC4)nc3)nc3cn[nH]c23)n[nH]1

>  <pIC50>
6.00 to 7.00

$$$$
>  <structure-smiles>
c1ccc(-c2nc(Nc3ccc4[nH]ncc4c3)c3[nH]ncc3n2)cc1

>  <pIC50>
6.00 to 7.00

$$$$
>  <structure-smiles>
CSc1cccc(-c2nc(Nc3ccc(N4CCN(C)CC4)cc3)c3[nH]ncc3n2)c1

>  <pIC50>
6.00 to 7.00

$$$$
>  <structure-smiles>
COc1ccc(-c2nc(Nc3ccc(N(C)C)cc3)c3[nH]ncc3n2)cc1

>  <pIC50>
6.00 to 7.00

$$$$
>  <structure-smiles>
Oc1cccc(Nc2nc(-c3cccs3)nc3cn[nH]c23)c1

>  <pIC50>
6.00 to 7.00

$$$$
>  <structure-smiles>
c1csc(-c2nc(Nc3ccc4c(c3)COC4)c3[nH]ncc3n2)c1

>  <pIC50>
6.00 to 7.00

$$$$

Provide pIC50 values for the following items, in order.
1. COc1ccccc1-c1nc(Nc2ccc3c(c2)NCCO3)c2[nH]ncc2n1
2. COc1ccc(Nc2nc(-c3ccc4cn[nH]c4c3)nc3cn[nH]c23)cc1OC
3. COc1ccc(-c2nc(Nc3cccc(O)c3)c3[nH]ncc3n2)cc1
4. CN1CCN(c2ccc(Nc3nc(-c4ccccc4F)nc4cn[nH]c34)cc2)CC1
5. CN(C)c1ccc(Nc2nc(-c3ccncc3)nc3cn[nH]c23)cc1

Data returned:
["6.00 to 7.00", "7.00 to 8.00", "6.00 to 7.00", "6.00 to 7.00", "6.00 to 7.00"]

Okay, here is my list. What is pIC50 for each of these?
1. COc1ccc(-c2nc(Nc3ccc4[nH]ncc4c3)c3[nH]ncc3n2)cc1OC
2. O=C1COc2ccc(Nc3nc(-c4ccsc4)nc4cn[nH]c34)cc2N1
3. COc1ccc(-c2nc(Nc3ccc4c(c3)NC(=O)CCC4)c3[nH]ncc3n2)cc1
4. O=C1CCc2ccc(Nc3nc(-c4cccc(C(=O)O)c4)nc4cn[nH]c34)cc2N1
5. CN1CCN(c2ccc(Nc3nc(-c4ccc(N5CCCC5)nc4)nc4cn[nH]c34)cc2)CC1
6. Oc1cccc(Nc2nc(-c3ccccc3)nc3cn[nH]c23)c1

Data returned:
["6.00 to 7.00", "6.00 to 7.00", "7.00 to 8.00", "7.00 to 8.00", "7.00 to 8.00", "6.00 to 7.00"]

* * *

Assignment: determine reported pIC50 for the given compounds.
Molecular target: LRRK2 (Homo sapiens, UniProt Q5S007)
Sequence (Q5S007 970-2527 limits assumed): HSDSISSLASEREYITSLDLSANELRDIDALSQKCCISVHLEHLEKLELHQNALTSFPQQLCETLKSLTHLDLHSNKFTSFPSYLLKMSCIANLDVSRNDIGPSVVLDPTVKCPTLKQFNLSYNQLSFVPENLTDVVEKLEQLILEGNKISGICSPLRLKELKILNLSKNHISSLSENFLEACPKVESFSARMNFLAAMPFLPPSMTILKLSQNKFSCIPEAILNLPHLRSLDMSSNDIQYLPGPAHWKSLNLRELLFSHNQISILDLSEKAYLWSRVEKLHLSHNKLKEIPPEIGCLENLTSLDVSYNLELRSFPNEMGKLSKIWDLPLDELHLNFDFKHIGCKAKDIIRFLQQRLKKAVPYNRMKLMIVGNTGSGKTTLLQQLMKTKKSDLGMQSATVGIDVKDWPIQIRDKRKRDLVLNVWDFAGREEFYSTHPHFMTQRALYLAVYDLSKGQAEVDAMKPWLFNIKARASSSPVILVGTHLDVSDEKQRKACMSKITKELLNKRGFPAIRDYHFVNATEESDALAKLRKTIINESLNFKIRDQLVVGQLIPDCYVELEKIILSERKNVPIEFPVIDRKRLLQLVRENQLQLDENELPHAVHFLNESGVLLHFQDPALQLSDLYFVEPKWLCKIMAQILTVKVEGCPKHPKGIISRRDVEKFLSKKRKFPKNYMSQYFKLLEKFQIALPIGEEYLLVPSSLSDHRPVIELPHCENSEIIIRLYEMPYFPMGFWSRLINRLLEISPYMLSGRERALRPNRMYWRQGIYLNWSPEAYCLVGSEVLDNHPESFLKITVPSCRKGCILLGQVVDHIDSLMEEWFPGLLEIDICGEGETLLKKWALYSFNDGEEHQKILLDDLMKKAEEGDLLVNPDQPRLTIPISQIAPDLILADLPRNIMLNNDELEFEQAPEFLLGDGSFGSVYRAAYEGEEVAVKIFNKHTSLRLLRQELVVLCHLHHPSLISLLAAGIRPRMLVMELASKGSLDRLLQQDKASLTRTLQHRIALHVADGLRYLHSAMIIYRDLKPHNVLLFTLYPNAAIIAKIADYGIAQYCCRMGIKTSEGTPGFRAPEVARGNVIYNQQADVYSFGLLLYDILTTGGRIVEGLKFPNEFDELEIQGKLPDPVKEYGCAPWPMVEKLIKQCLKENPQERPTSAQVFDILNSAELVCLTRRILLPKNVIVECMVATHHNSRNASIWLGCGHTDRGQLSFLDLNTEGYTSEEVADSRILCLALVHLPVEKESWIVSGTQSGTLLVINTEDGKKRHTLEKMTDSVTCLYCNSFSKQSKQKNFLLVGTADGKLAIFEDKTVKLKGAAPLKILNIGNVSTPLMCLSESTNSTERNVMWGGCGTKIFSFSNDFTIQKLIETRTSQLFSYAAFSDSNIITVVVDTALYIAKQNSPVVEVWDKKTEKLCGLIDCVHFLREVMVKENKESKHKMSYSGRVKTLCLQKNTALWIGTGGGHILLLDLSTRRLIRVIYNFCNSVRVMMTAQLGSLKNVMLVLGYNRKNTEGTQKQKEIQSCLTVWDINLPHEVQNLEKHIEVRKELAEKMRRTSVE
Assay: LRRK2-LRRK2 G2019S-Assay (LanthaScreen Eu Kinase Binding Assay)
Details: 5 nM LRRK2 or their mutants, 10 nM tracer 236, RT 1 h; read-out: LRRK2 Activities: IC50
pIC50: −log10 of the molar value.

Worked cases, pIC50 given:
>  <structure-smiles>
O=C1COc2ccc(Nc3nc(-c4ccccc4)nc4cn[nH]c34)cc2N1

>  <tested-target>
LRRK2 (Homo sapiens, UniProt Q5S007)

>  <pIC50>
7.00 to 8.00

$$$$
>  <structure-smiles>
O=C1CSc2ccc(Nc3nc(-c4ccsc4)nc4cn[nH]c34)cc2N1

>  <tested-target>
LRRK2 (Homo sapiens, UniProt Q5S007)

>  <pIC50>
7.00 to 8.00

$$$$
>  <structure-smiles>
CC(=O)N1CCN(c2ccc(Nc3nc(-c4cscn4)nc4cn[nH]c34)cc2)CC1

>  <tested-target>
LRRK2 (Homo sapiens, UniProt Q5S007)

>  <pIC50>
6.00 to 7.00

$$$$
>  <structure-smiles>
c1cc(-c2nc(Nc3ccc4cn[nH]c4c3)c3[nH]ncc3n2)ccn1

>  <tested-target>
LRRK2 (Homo sapiens, UniProt Q5S007)

>  <pIC50>
6.00 to 7.00

$$$$

Here is the next item to consider.
Data request: Item CN1CCN(c2ccc(Nc3nc(-c4ncco4)nc4cn[nH]c34)cc2)CC1 : provide pIC50
Data returned: 6.00 to 7.00
